Record form. Attribute: percentage of binding compared to full binding with human CEACAM5. Fill in for each entry.
Biological target: T1, hCEACAM6, human CEACAM6 ECD (35-327) (human, UniProt P40199 35-327)
T1 construct: With 24 amino acid extension containing a His-Tag
T1 sequence: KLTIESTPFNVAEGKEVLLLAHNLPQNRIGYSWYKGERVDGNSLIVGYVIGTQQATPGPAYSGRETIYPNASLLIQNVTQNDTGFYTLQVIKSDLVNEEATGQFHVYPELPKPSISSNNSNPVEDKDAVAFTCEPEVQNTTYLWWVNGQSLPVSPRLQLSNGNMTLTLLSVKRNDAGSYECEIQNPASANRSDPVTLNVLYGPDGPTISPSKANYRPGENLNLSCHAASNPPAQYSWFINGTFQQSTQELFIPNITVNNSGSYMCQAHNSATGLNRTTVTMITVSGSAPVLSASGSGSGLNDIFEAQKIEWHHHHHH
Experiment: ELISA

>>> endpoint_result("huMAb2-2 (antibody, V domains shown, Humanized MAb2 (VL1a + VH1a) fused to human IgG1 and human Ckappa constant domains; also called MAb2_VL1aVH1a-IgG1; MA2_VL1aVH1a-IgG1) VH: EVQLQESGPGLVKPGGSLSLSCAASGFVFSSYDMSWVRQTPERGLEWVAYISSGGGITYAPSTVKGRFTVSRDNAKNTLYLQMNSLTSEDTAVYYCAAHYFGSSGPFAYWGQGTLVTVSS VL: DIQMTQSPASLSASVGDRVTITCRASENIFSYLAWYQQKPGKSPKLLVYNTKTLAEGVPSRFSGSGSGTDFSLTISSLQPEDFATYYCQHHYGTPFTFGSGTKLEIK")
"0.3%"
>>> endpoint_result("huMAb2-3 (antibody, human IgG1, kappa, V domains shown, Humanized MAb2, human IgG1 / Ckappa; also called MAb2_VL1cVH1a-IgG1) VH: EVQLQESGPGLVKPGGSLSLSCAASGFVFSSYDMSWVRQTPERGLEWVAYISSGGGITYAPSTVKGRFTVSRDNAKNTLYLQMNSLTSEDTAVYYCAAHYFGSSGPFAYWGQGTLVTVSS VL: DIQMTQSPASLSASVGDRVTITCRASENIFSYLAWYQQKPGKSPKLLVYNTRTLAEGVPSRFSGSGSGTDFSLTISSLQPEDFATYYCQHHYGTPFTFGSGTKLEIKR")
"0.3%"
>>> endpoint_result("huMAb2-1 (antibody, V domains shown, Humanized MAb2 (VL1 + VH1) fused to human IgG1 and human Ckappa constant domains; also called MAb2_VL1VH1-IgG1; MAb2VL1VH1-IgG1) VH: EVQLQESGPGLVKPGGSLSLSCAASGFVFSSYDMSWVRQTPERRLEWVAYISSGGGITYFPSTVKGRFTVSRDNAKNTLYLQMNSLTSEDTAIYYCAAHYFGSSGPFAYWGQGTLVTVSA VL: DIQMTQSPASLSASVGDTVTITCRASENIFSYLAWYQQKPGKSPKLLVYNTKTLAEGVPSRFSGSGSGTQFSLTISSLQPEDFGSYYCQHHYGTPFTFGSGTKLEIK")
"0.2%"
>>> endpoint_result("huMAb2-4 (antibody, human IgG1, kappa, V domains shown, Humanized MAb2, human IgG1 / Ckappa; also called MAb2_VL1d VH1-IgG1; MAb2_VL1dVH1-IgG1) VH: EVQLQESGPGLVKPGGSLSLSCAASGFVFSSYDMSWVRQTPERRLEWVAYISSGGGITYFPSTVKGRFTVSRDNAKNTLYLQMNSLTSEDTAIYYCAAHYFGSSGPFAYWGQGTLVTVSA VL: DIQMTQSPASLSASVGDTVTITCRASENIFSYLAWYQQKPGKSPKLLVYNTRTLAEGVPSRFSGSGSGTQFSLTISSLQPEDFGSYYCQHHYGTPFTFGSGTKLEIKR")
"0.3%"

Task: Report percentage of binding compared to full binding with human CEACAM5, nothing else, for this binder: chMAb2 (antibody, human IgG1, kappa, V domains shown, Chimeric, human IgG1, Ck isotype; also called MAb2-IgG1; chimeric MAb2) VH: EVQLQESGGVLVKPGGSLKLSCAASGFVFSSYDMSWVRQTPEKRLEWVAYISSGGGITYFPDTVQGRFTVSRDNAKNTLYLQMNSLKSEDTAIYYCAAHYFGSSGPFAYWGQGTLVTVSA VL: DIQMTQSPASLSASVGETVTITCRASENIFSYLAWYQQKQGKSPQLLVYNTKTLAEGVPSRFSGSGSGTQFSLKINSLQPEDFGSYYCQHHYGTPFTFGSGTKLEIKR
Output: 0.3%
